Test system: KELLY (Neuroblastoma);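 note: after 72 h of two-drug dosing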
measurement_notes: Bliss excess, mean over the matrix (fraction); higher = more synergy
Form field: Bliss excess (one value per entry).
Write no unit; give the number alone.

Solved cases (8 shown):
CC1(C)CCC(CN2CCN(c3ccc(C(=O)NS(=O)(=O)c4ccc(NCC5CCOCC5)c([N+](=O)[O-])c4)c(Oc4cnc5[nH]ccc5c4)c3)CC2)=C(c2ccc(Cl)cc2)C1 [Venetoclax] + COc1cc(Nc2ncc3c(n2)-c2ccc(Cl)cc2C(c2c(F)cccc2OC)=NC3)ccc1C(=O)O [Alisertib] (first compound max 1 µM, 7x7, partner max 10 µM) ... 0.0343
C[C@@H]1COCCN1c1cc(C2([S@](C)(=N)=O)CC2)nc(-c2ccnc3[nH]ccc23)n1 [AZD6738] + C1CC(C1)(C(=O)[O-])C(=O)[O-].N.N.[Pt+2] [Carboplatin] (first compound max 10 µM, 7x7, partner max 10 µM) ... -0.0516
Cc1cc2ncnn2cc1Nc1ncc2c(n1)n(C1CCOCC1)c(=O)n2C [AZD7648] + C=CCn1c(=O)c2cnc(Nc3ccc(N4CCN(C)CC4)cc3)nc2n1-c1cccc(C(C)(C)O)n1 [AZD1775] (first compound max 10 µM, partner max 1 µM) ... 0.015
CN(CCO)CC[C@H](CSc1ccccc1)Nc1ccc(S(=O)(=O)NC(=O)c2ccc(N3CCC([C@@H](O)c4ccccc4-c4ccc(Cl)cc4)CC3)cc2)cc1S(=O)(=O)C(F)(F)F [AZD4320] + CCN(CCO)CCCOc1ccc2c(Nc3cc(CC(=O)Nc4cccc(F)c4)[nH]n3)ncnc2c1 [AZD2811] (first compound max 1 µM, 7x7, partner max 1 µM) ... 0.051
C=CCn1c(=O)c2cnc(Nc3ccc(N4CCN(C)CC4)cc3)nc2n1-c1cccc(C(C)(C)O)n1 [AZD1775] + Nc1ccn([C@@H]2O[C@H](CO)[C@@H](O)C2(F)F)c(=O)n1 [Gemcitabine] (first compound max 1 µM, partner max 0.3 µM) ... 0.0306
COc1cc2c(cc1OCCCCCOc1cc3c(cc1OC)C(=O)N1C=C(C)C[C@H]1C=N3)N=C[C@@H]1CC(C)=CN1C2=O [SG3199] + O=C(c1cc(Cc2n[nH]c(=O)c3ccccc23)ccc1F)N1CCN(C(=O)C2CC2)CC1 [Olaparib] (first compound max 0.001 µM, 7x7, partner max 10 µM) ... 0.0142
C[C@@H]1COCCN1c1cc(C2([S@](C)(=N)=O)CC2)nc(-c2ccnc3[nH]ccc23)n1 [AZD6738] + O=C(c1cc(Cc2n[nH]c(=O)c3ccccc23)ccc1F)N1CCN(C(=O)C2CC2)CC1 [Olaparib] (first compound max 10 µM, 7x7, partner max 10 µM) ... 0.0227
COc1nnc2ccc(N3CCC(c4ccc(OCCN5CCN(C)C(=O)[C@H]5C)cc4)CC3)nn12 [AZD5153] + Cc1c2c(nn1C)CSCc1cc(n(C)n1)CSc1cc(c3ccccc3c1)OCCCc1c(C(=O)O)n(C)c3c-2c(Cl)ccc13 [AZD5991] (first compound max 1 µM, 7x7, partner max 1 µM) ... 0.0357

stdin: Give Bliss excess (KELLY (Neuroblastoma)) of the following compound: CN(CCO)CC[C@H](CSc1ccccc1)Nc1ccc(S(=O)(=O)NC(=O)c2ccc(N3CCC([C@@H](O)c4ccccc4-c4ccc(Cl)cc4)CC3)cc2)cc1S(=O)(=O)C(F)(F)F [AZD4320] + CC(=O)O[C@H]1C(=O)[C@@]2(C)[C@H]([C@H](OC(=O)c3ccccc3)[C@]3(O)C[C@H](OC(=O)[C@H](O)[C@@H](NC(=O)c4ccccc4)c4ccccc4)C(C)=C1C3(C)C)[C@]1(OC(C)=O)CO[C@@H]1C[C@@H]2O [Paclitaxel] (first compound max 1 µM, 7x7, partner max 3 µM)
stdout: -0.0068

stdin: Next entry: CN(CCO)CC[C@H](CSc1ccccc1)Nc1ccc(S(=O)(=O)NC(=O)c2ccc(N3CCC([C@@H](O)c4ccccc4-c4ccc(Cl)cc4)CC3)cc2)cc1S(=O)(=O)C(F)(F)F [AZD4320] + C[C@@H](Nc1cc(F)cc(F)c1)c1cc(C(=O)N(C)C)cc2c(=O)cc(N3CCOCC3)oc12 [AZD8186] (first compound max 1 µM, 7x7, partner max 3 µM)
stdout: 0.029

stdin: Next entry: Cn1cnc2c(F)c(Nc3ccc(Br)cc3Cl)c(C(=O)NOCCO)cc21 [Selumetinib] + C[C@@H]1COCCN1C2=NC(=NC(=C2)C3(CC3)[S@](=N)(=O)C)C4=C5C=CNC5=NC=C4 [AZD6738] (first compound max 10 µM, 7x7, partner max 10 µM)
stdout: -0.015

stdin: Next entry: COc1cccc(OCCCN)c1-c1cc(Nc2cnc(C#N)cn2)n[nH]1 [Prexasertib] + C[C@@H]1COCCN1C2=NC(=NC(=C2)C3(CC3)[S@](=N)(=O)C)C4=C5C=CNC5=NC=C4 [AZD6738] (first compound max 1 µM, 7x7, partner max 10 µM)
stdout: 0.0187
